Molecular target: OAT1 (Homo sapiens, UniProt Q4U2R8)
Sequence (Q4U2R8 1-563): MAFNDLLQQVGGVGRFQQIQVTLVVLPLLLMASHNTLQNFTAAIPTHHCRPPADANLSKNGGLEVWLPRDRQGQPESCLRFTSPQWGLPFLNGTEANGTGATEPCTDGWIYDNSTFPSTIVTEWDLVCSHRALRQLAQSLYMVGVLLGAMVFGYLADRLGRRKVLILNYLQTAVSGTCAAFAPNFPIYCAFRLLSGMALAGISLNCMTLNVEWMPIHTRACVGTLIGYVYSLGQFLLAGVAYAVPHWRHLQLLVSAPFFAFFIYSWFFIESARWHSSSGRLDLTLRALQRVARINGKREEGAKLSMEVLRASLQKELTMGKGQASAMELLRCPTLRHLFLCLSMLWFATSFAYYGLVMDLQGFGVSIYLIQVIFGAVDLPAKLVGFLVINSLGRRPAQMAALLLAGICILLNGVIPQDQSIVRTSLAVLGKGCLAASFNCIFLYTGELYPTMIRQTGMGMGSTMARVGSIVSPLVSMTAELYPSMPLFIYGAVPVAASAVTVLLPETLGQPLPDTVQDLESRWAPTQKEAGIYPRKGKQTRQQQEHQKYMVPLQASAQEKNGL
Test: Inhibition of [3H]PAH uptake into CHO-OAT1 cells (IC50 determination)
Settings: IC50 for inhibition of [3H]PAH uptake, 15 sec incubation, [3H]PAH 20 nM, mean ± SEM, n=4
PROPERTY_MEASURED: IC50 (µM)

[P] COc1ccc2[nH]c([S+]([O-])Cc3ncc(C)c(OC)c3C)nc2c1 (centres unmarked) [Omeprazole, omeprazole]
[Q] CCCc1nc2c(C)cc(-c3nc4ccccc4n3C)cc2n1Cc1ccc(-c2ccccc2C(=O)O)cc1 [Telmisartan, telmisartan]
Task: Sorting by IC50 in descending order, would P or Q appear first? Reply briefly: the label of your chosen item.
Result: P
(P: 9.7 µM, Q: 0.4 µM)
